In this section, each of the compounds is paired with its reported cytotoxicity at 70.5 h.
Assay: Human HepG2 cell viability assay in 384 well format
Assay type: toxicity, cell-based
Set-up: dose 125 nL, time 70.5 hour; concentration not given beside the values
Settings: HepG2 cells, read-out: Inhibition

compound: CCn1nnc2c1C(COC)CN(Cc1ccsc1)C2 (stereo unspecified)
unit.label: %
cytotoxicity at 70.5 h: -0.304
//
compound: Cc1ccc(-c2cnnc(N3CCCC3c3nonc3C)n2)o1 (stereo unspecified)
unit.label: %
cytotoxicity at 70.5 h: -3.66
//
compound: CC(=O)N1CCCn2c(nc(CNS(=O)(=O)C3CC3)cc2=O)C1
unit.label: %
cytotoxicity at 70.5 h: -2.61
//
compound: O=c1cc(Cn2ccnc2)nc2n1CCCN(S(=O)(=O)C1CC1)C2
unit.label: %
cytotoxicity at 70.5 h: -11.3
//
compound: Cc1cc(CCC(=O)NCc2ncc[nH]2)ccc1Br
unit.label: %
cytotoxicity at 70.5 h: -0.138
//
compound: Cc1cnc(C)c(N2CCC(Cc3ccccc3Cl)(C(=O)O)CC2)n1
unit.label: %
cytotoxicity at 70.5 h: -8.45
//
compound: Cc1ncc2c(n1)CN(Cc1nc3c(F)cccc3[nH]1)CC2
unit.label: %
cytotoxicity at 70.5 h: -2.01
//
compound: CN(C(=O)COc1ccc(F)cc1)[C@@H]1CS(=O)(=O)C[C@H]1O
unit.label: %
cytotoxicity at 70.5 h: -0.138
//
compound: CC(=O)N1CCN(C(=O)NCc2ccccc2Cn2cncn2)CC1
unit.label: %
cytotoxicity at 70.5 h: -14.9
//
compound: CCCN(CCC)c1ncc(S(=O)(=O)c2ccc(C)cc2)c(N)n1
unit.label: %
cytotoxicity at 70.5 h: -19.9
//
compound: Cc1ccc(C(NC(=O)CC2CCN(C(C)C)CC2)C(=O)O)cc1 (stereo unspecified)
unit.label: %
cytotoxicity at 70.5 h: -3.16
